Source of measurements: the supplement of paper PMC10567573

Reported protein stability index by item:
# PROCEDURE TEXT: protein stability index of a GFP-peptide fusion (GPS, HEK-293T) (PSI 1-6); higher = more stable;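 further: 24-mer peptide tiles fused after GFP, lentivirally expressed, FACS-sorted into six equal bins by GFP/DsRed ratio, decoded by Illumina sequencing, PSI is the read-weighted mean bin number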
# MEASUREMENT PARAMETERS: treatment: DMSO; c terminus: a fixed tail appended
The answer should be a number; do not append a unit.

# example entries with known answers
- SEQ TEXT: "PKGGQVQIVTKKIDLSHVTSKCGS [MAP2]"
  VAL: 3.92
- SEQ TEXT: "EEAAFPGRRVNAKMPVYSGSRPAC [ELOA2]"
  VAL: 4.01
- SEQ TEXT: "IEGAPEVTMSSLFKHILRTEGAFG [SLC25A25]"
  VAL: 2.31
- SEQ TEXT: "AKLALYPCASLLAFASTCLLSRFS [TMEM175]"
  VAL: 2.45
- SEQ TEXT: "PAVTPDPWGVQGGQESEVPYKREE [PKD2L1]"
  VAL: 5.24

For record DTLADDVPGHQTPSDLDQFSDSSL [LURAP1L] the listed protein stability index is 5.44

Sample PSRAPPSTQEPQSPREGEELKPED [GNAS] ; protein stability index observed: 5.5

---

# PROCEDURE TEXT: protein stability index of a GFP-peptide fusion (GPS, HEK-293T) (PSI 1-6); higher = more stable
# MEASUREMENT PARAMETERS: treatment: MLN4924 1 uM, 8 h; c terminus: a fixed tail appended
Below, each entry is listed alongside its reported protein stability index.
Reply briefly: the number, and no unit.

- SEQ TEXT: "ISCVICNDIMAYMFGFFFGRTPLI [CDS2]"
  protein stability index: 2.92
- SEQ TEXT: "NLFFAWIKIFKYISFNKTMTQLSS [PKD2L1]"
  protein stability index: 2.99
- SEQ TEXT: "RSLLLKYARTPTLDPDTMHARLRL [TRIM14]"
  protein stability index: 2.37

Lookup result for HFQPNSPASDLEAALEAAGEGLNV [NANOGP8] ; measured protein stability index: 5.24

Sample PKGGQVQIVTKKIDLSHVTSKCGS [MAP2] ; protein stability index observed: 3.91

---

# PROCEDURE TEXT: protein stability index of a GFP-peptide fusion (GPS, HEK-293T) (PSI 1-6); higher = more stable
# MEASUREMENT PARAMETERS: treatment: MLN4924 1 uM, 8 h; c terminus: a fixed tail appended
MEASURE NAME: protein stability index
Note: the reply should be a number with no unit written.

- SEQ TEXT: "SIIECDMNVDFDAPLGYKEPERQV [UFD1]"
  VAL: 4.31
- SEQ TEXT: "QLSRLNITYPMLFKLTNKNSDRMT [UFD1]"
  VAL: 2.58
- SEQ TEXT: "LSPALDLQAESPPVDPDSQADTVH [DNAAF3]"
  VAL: 5.46
- SEQ TEXT: "CKIRIQRQLEIMGKEVSGDQIEDM [STX11]"
  VAL: 3.94
- SEQ TEXT: "LTLKVLRSSSCGDTELLGQATLPV [C2CD2L]"
  VAL: 2.33
- SEQ TEXT: "GGDYGLVTAGCGFGKDFRKGLLKK [PPTC7]"
  VAL: 3.6

Per the record, LFEGMIWFLVPISSVICNDITAYL [CDS1] has protein stability index of 3.38

protein stability index recorded for this sequence, QELCEGLLEESDGEGEPGQGEGPE [NOP53] , is 5.56

Kindly note the recorded protein stability index for CPQCGKCFARKSQLTGHQRIHSGE [ZNF449] , which is 5.16

Input AEEAEILHSACGLSKDHQEVETEG [TOR1AIP2] . Output protein stability index: 5.72

Please fill in: protein stability index reported for WEKVGSGGFGQVYKVRHVHWKTWL [RIPK4] = 2.24

Briefly, protein stability index measured for FYHYFEDKENIYILLEYCSRRSMA [PLK2] : 2.21
